Values compiled from paper PMC12302229.

- TESTED_ON: galectin-1 (Homo sapiens, UniProt P09382)
- Construct: made in house
- Sequence (P09382 whole entry): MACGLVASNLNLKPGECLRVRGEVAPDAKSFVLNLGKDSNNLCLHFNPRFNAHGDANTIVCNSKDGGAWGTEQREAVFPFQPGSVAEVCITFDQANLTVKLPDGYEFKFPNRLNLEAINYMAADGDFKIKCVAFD
- ASSAY_EXPLANATION: competitive fluorescence polarization assay, galectin-1
- Format: binding
- EXPERIMENTAL_SETUP: fluorescence polarization; Kd and SEM from 3–6 single point measurements; read-out: Dissociation constants, Galectin-1
pKd: −log10 of the molar value.
MEASURE_NAME: pKd

Here's what some known entries look like.
>>> experimental_result("OC[C@H]1O[C@@H](c2cn(-c3ccc(-c4ccccc4)cc3)nn2)[C@H](O)[C@@H](O)[C@H]1O")
3.01
>>> experimental_result("CC(=O)c1cccc(-n2cc([C@@H]3O[C@H](CO)[C@H](O)[C@H](O)[C@H]3O)nn2)c1")
2.89
>>> experimental_result("OC[C@H]1O[C@@H](c2cn(-c3cccc(C(F)(F)F)c3)nn2)[C@H](O)[C@@H](O)[C@H]1O")
2.82
>>> experimental_result("OC[C@H]1O[C@@H](c2cn(-c3ccccn3)nn2)[C@H](O)[C@@H](O)[C@H]1O")
3.82
>>> experimental_result("O=[N+]([O-])c1cccc(-n2cc([C@@H]3O[C@H](CO)[C@H](O)[C@H](O)[C@H]3O)nn2)c1")
2.74

[a] CS(=O)(=O)c1cccc(-n2cc([C@@H]3O[C@H](CO)[C@H](O)[C@H](O)[C@H]3O)nn2)c1
[b] OC[C@H]1O[C@@H](c2cn(-c3ccc(Cl)cn3)nn2)[C@H](O)[C@@H](O)[C@H]1O
Task: Could you kindly indicate whether a or b has the higher pKd value? Choose, then provide that item's label.
Output: b
(b: 3.19, a: 2.85)
